Target: SALL4 ZFC4 G921D (HT-SELEX) (Mus musculus, UniProt Q8BX22 870-940, G921D)
Sequence: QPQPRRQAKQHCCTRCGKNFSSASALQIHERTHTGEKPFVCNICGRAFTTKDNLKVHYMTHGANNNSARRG
Assay: HT-SELEX; high values mean tight binding
Conditions: protein: recombinant; vector His6-GST; dsDNA, one strand shown
Exam item: assign met to entries whose binding signal is below 0.9 fold-change vs cycle 0 and not met to entries at or above 0.9 fold-change vs cycle 0. Note that a value of exactly 0.9 fold-change vs cycle 0 receives not met.

Sequence Input: CTCACC
Label Value: met

Sequence Input: ATGCTA
Label Value: not met

Sequence Input: ACGAGG
Label Value: met

Sequence Input: TAAAAA
Label Value: not met

Sequence Input: TAATGA
Label Value: not met

Sequence Input: AGCGAT
Label Value: met

Sequence Input: GTGTTA
Label Value: not met

Sequence Input: ACGCCT
Label Value: met

Sequence Input: ATCTCG
Label Value: not met

Sequence Input: TCCAGA
Label Value: not met

Sequence Input: CCCAAG
Label Value: met

Sequence Input: AATCTA
Label Value: not met

Sequence Input: AGGGTA
Label Value: not met

Sequence Input: GATCCC
Label Value: met

Sequence Input: AGCTTA
Label Value: not met

Sequence Input: CGGCCC
Label Value: met

Sequence Input: GAATAA
Label Value: not met

Sequence Input: ATAGCG
Label Value: met

Sequence Input: ACGCTG
Label Value: met

Sequence Input: ATAGTA
Label Value: not met

Sequence Input: AATTGA
Label Value: not met

Sequence Input: ATAAAA
Label Value: not met

Sequence Input: CGCGTC
Label Value: met

Sequence Input: TCGCCA
Label Value: met

Sequence Input: GCTTTA
Label Value: not met

Sequence Input: CTGCTA
Label Value: met

###

Target: SALL4 ZFC4 WT (HT-SELEX) (Mus musculus, UniProt Q8BX22 870-940)
Sequence: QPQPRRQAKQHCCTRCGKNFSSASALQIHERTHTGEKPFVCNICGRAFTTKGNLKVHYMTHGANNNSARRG
Test: HT-SELEX; high values mean tight binding
Conditions: protein: recombinant; vector His6-GST; dsDNA, one strand shown
Please use Yes for binding signal under 0.9 fold-change vs cycle 0 and No for everything else, ties included.

Sequence Input: AACCTC
Label Value: Yes
//
Sequence Input: ATGCTC
Label Value: Yes
//
Sequence Input: CGGAAG
Label Value: Yes
//
Sequence Input: CCATGG
Label Value: Yes
//
Sequence Input: CAATTG
Label Value: No
//
Sequence Input: ATGGAA
Label Value: No
//
Sequence Input: TACTGA
Label Value: No
//
Sequence Input: ACCTGC
Label Value: Yes
//
Sequence Input: CTCAAC
Label Value: Yes
//
Sequence Input: GTACAA
Label Value: No
//
Sequence Input: CATTTA
Label Value: No
//
Sequence Input: TATTCA
Label Value: No
//
Sequence Input: AGTATA
Label Value: No
//
Sequence Input: TAAACA
Label Value: No
//
Sequence Input: ATATAA
Label Value: No
//
Sequence Input: GACTCA
Label Value: Yes
//
Sequence Input: CTTCTA
Label Value: No
//
Sequence Input: GATAGA
Label Value: No
//
Sequence Input: TCACAA
Label Value: No
//
Sequence Input: CCCTCA
Label Value: Yes
//
Sequence Input: CTAAGC
Label Value: Yes
//
Sequence Input: AGGGTG
Label Value: Yes
//
Sequence Input: ATGAAT
Label Value: No
//
Sequence Input: CAGAAC
Label Value: Yes
//
Sequence Input: CATACC
Label Value: Yes
//
Sequence Input: GATACA
Label Value: No
//
Sequence Input: TAGTGA
Label Value: No
//
Sequence Input: ACCCTG
Label Value: Yes
//
Sequence Input: AGAGAC
Label Value: Yes
//
Sequence Input: AATACT
Label Value: No
//
Sequence Input: ACAGAA
Label Value: No
//
Sequence Input: AGAATG
Label Value: No
//
Sequence Input: AACACA
Label Value: No
//
Sequence Input: ACCGGA
Label Value: Yes
//
Sequence Input: ATGGTC
Label Value: Yes
//
Sequence Input: ATTATA
Label Value: No
//
Sequence Input: CGTCAG
Label Value: Yes
//
Sequence Input: CACCTG
Label Value: Yes
//
Sequence Input: AGTTTC
Label Value: No
//
Sequence Input: CCTTTC
Label Value: Yes
//
Sequence Input: ACGTCA
Label Value: Yes
//
Sequence Input: ATACAC
Label Value: No
//
Sequence Input: GGTCAC
Label Value: Yes
//
Sequence Input: AAGGTA
Label Value: No
//
Sequence Input: CCAGTC
Label Value: Yes
//
Sequence Input: CCAACA
Label Value: Yes
//
Sequence Input: CCTTAA
Label Value: No
//
Sequence Input: CAGCTC
Label Value: Yes
//
Sequence Input: CCAAAG
Label Value: Yes
//
Sequence Input: GTACGA
Label Value: Yes
//
Sequence Input: GCAGAA
Label Value: Yes
//
Sequence Input: AGGTCA
Label Value: Yes
//
Sequence Input: TCCACA
Label Value: Yes
//
Sequence Input: ACTTGG
Label Value: Yes
//
Sequence Input: GGGTAA
Label Value: Yes
//
Sequence Input: GTCAAC
Label Value: Yes
//
Sequence Input: TAACAA
Label Value: No
//
Sequence Input: CATAGG
Label Value: Yes
//
Sequence Input: CTACAA
Label Value: No
//
Sequence Input: CTAGGA
Label Value: Yes
//
Sequence Input: GATCCC
Label Value: Yes
//
Sequence Input: TTCCAA
Label Value: No
//
Sequence Input: ACTGGG
Label Value: Yes
//
Sequence Input: AGAGGA
Label Value: No
//
Sequence Input: CCACCA
Label Value: Yes
//
Sequence Input: AATAAG
Label Value: No
//
Sequence Input: GATATC
Label Value: No
//
Sequence Input: AATGTG
Label Value: No
//
Sequence Input: ATTACA
Label Value: No
//
Sequence Input: CAGCAC
Label Value: Yes
//
Sequence Input: AACAGG
Label Value: Yes
//
Sequence Input: ACCGTC
Label Value: Yes
//
Sequence Input: CGGAGA
Label Value: Yes
//
Sequence Input: CGCTTA
Label Value: Yes
//
Sequence Input: CAAGGA
Label Value: Yes
//
Sequence Input: ATACAT
Label Value: No
//
Sequence Input: GAAGGC
Label Value: Yes
//
Sequence Input: AAAGGA
Label Value: No

###

Biological target: SALL4 ZFC4 R900W (HT-SELEX) (Mus musculus, UniProt Q8BX22 870-940, R900W)
Sequence: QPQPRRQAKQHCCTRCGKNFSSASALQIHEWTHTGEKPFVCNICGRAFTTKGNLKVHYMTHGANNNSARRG
Experiment: HT-SELEX; high values mean tight binding
Settings: protein: recombinant; vector His6-GST; dsDNA, one strand shown
Quick list: log10 binding signal per entry.
Quantity Name: log10 binding signal (log10 of the value in fold-change vs cycle 0)

Sequence Input: GGAGAC
Quantity Name: log10 binding signal
Reported Value: -0.24

Sequence Input: TCACCA
Quantity Name: log10 binding signal
Reported Value: -0.03

Sequence Input: CCACCG
Quantity Name: log10 binding signal
Reported Value: -0.68

Sequence Input: AATTAA
Quantity Name: log10 binding signal
Reported Value: 0.41

Sequence Input: AGTGCC
Quantity Name: log10 binding signal
Reported Value: -0.54

Sequence Input: CTCGAG
Quantity Name: log10 binding signal
Reported Value: -0.26

Sequence Input: CGACCA
Quantity Name: log10 binding signal
Reported Value: -0.49

Sequence Input: TGTACA
Quantity Name: log10 binding signal
Reported Value: 0.12

Sequence Input: CATACG
Quantity Name: log10 binding signal
Reported Value: -0.10

Sequence Input: CTTTGA
Quantity Name: log10 binding signal
Reported Value: 0.13

Sequence Input: GCGTAA
Quantity Name: log10 binding signal
Reported Value: -0.25

Sequence Input: CACCAC
Quantity Name: log10 binding signal
Reported Value: -0.33

Sequence Input: AATTGT
Quantity Name: log10 binding signal
Reported Value: 0.26

Sequence Input: CTTGTC
Quantity Name: log10 binding signal
Reported Value: -0.05

Sequence Input: AGATCA
Quantity Name: log10 binding signal
Reported Value: 0.16

Sequence Input: GGTCAC
Quantity Name: log10 binding signal
Reported Value: -0.29

Sequence Input: ACACGC
Quantity Name: log10 binding signal
Reported Value: -0.53

Sequence Input: ATATAT
Quantity Name: log10 binding signal
Reported Value: 0.40

Sequence Input: AGTAAC
Quantity Name: log10 binding signal
Reported Value: 0.21

Sequence Input: CGCATC
Quantity Name: log10 binding signal
Reported Value: -0.52

Sequence Input: GGGCGA
Quantity Name: log10 binding signal
Reported Value: -0.90

Sequence Input: CTAGCA
Quantity Name: log10 binding signal
Reported Value: -0.11

Sequence Input: CACGCC
Quantity Name: log10 binding signal
Reported Value: -0.86

Sequence Input: ATTGAA
Quantity Name: log10 binding signal
Reported Value: 0.31

Sequence Input: CCCCCC
Quantity Name: log10 binding signal
Reported Value: -0.66

Sequence Input: CATTAC
Quantity Name: log10 binding signal
Reported Value: 0.18

Sequence Input: GCTCGA
Quantity Name: log10 binding signal
Reported Value: -0.51

Sequence Input: AATGCG
Quantity Name: log10 binding signal
Reported Value: -0.33

Sequence Input: GTACAC
Quantity Name: log10 binding signal
Reported Value: -0.06

Sequence Input: CTCTTA
Quantity Name: log10 binding signal
Reported Value: 0.20

Sequence Input: GCGCCA
Quantity Name: log10 binding signal
Reported Value: -1.25

Sequence Input: AAAAGA
Quantity Name: log10 binding signal
Reported Value: 0.29

Sequence Input: CAAATC
Quantity Name: log10 binding signal
Reported Value: 0.07

Sequence Input: ACGGTG
Quantity Name: log10 binding signal
Reported Value: -0.38

Sequence Input: AACGCA
Quantity Name: log10 binding signal
Reported Value: -0.26

Sequence Input: AGGTGA
Quantity Name: log10 binding signal
Reported Value: -0.01

Sequence Input: CGTCAA
Quantity Name: log10 binding signal
Reported Value: -0.18

Sequence Input: AGACGC
Quantity Name: log10 binding signal
Reported Value: -0.56

Sequence Input: AACCTT
Quantity Name: log10 binding signal
Reported Value: 0.18

Sequence Input: ATTCCC
Quantity Name: log10 binding signal
Reported Value: -0.03

Sequence Input: CATCGA
Quantity Name: log10 binding signal
Reported Value: -0.13

Sequence Input: AGAAGG
Quantity Name: log10 binding signal
Reported Value: 0.02

Sequence Input: GTCTCA
Quantity Name: log10 binding signal
Reported Value: -0.06

Sequence Input: ATGGTG
Quantity Name: log10 binding signal
Reported Value: -0.05

Sequence Input: ATGACC
Quantity Name: log10 binding signal
Reported Value: -0.05

Sequence Input: ACTATG
Quantity Name: log10 binding signal
Reported Value: 0.14

Sequence Input: GCCCTA
Quantity Name: log10 binding signal
Reported Value: -0.45

Sequence Input: CGAGGA
Quantity Name: log10 binding signal
Reported Value: -0.30

Sequence Input: GTCGAA
Quantity Name: log10 binding signal
Reported Value: -0.22

Sequence Input: GGGCTA
Quantity Name: log10 binding signal
Reported Value: -0.46

Sequence Input: CCTAAA
Quantity Name: log10 binding signal
Reported Value: 0.10

Sequence Input: CACCTC
Quantity Name: log10 binding signal
Reported Value: -0.25

Sequence Input: AAAACG
Quantity Name: log10 binding signal
Reported Value: -0.03

Sequence Input: CCTAAG
Quantity Name: log10 binding signal
Reported Value: 0.02

Sequence Input: ACCAAA
Quantity Name: log10 binding signal
Reported Value: 0.07

Sequence Input: CCCAAA
Quantity Name: log10 binding signal
Reported Value: -0.19

Sequence Input: TCTTCA
Quantity Name: log10 binding signal
Reported Value: 0.20

Sequence Input: CCCTCA
Quantity Name: log10 binding signal
Reported Value: -0.24

Sequence Input: ATCTCG
Quantity Name: log10 binding signal
Reported Value: -0.08

Sequence Input: ACCACC
Quantity Name: log10 binding signal
Reported Value: -0.29

Sequence Input: CCGGTC
Quantity Name: log10 binding signal
Reported Value: -0.69

Sequence Input: GCATGA
Quantity Name: log10 binding signal
Reported Value: -0.12

Sequence Input: AAGCGC
Quantity Name: log10 binding signal
Reported Value: -0.79

Sequence Input: CAACGA
Quantity Name: log10 binding signal
Reported Value: -0.13

Sequence Input: GGCCAA
Quantity Name: log10 binding signal
Reported Value: -0.66

Sequence Input: AGCCGG
Quantity Name: log10 binding signal
Reported Value: -0.92

Sequence Input: ATCTAC
Quantity Name: log10 binding signal
Reported Value: 0.15

Sequence Input: AATCAC
Quantity Name: log10 binding signal
Reported Value: 0.16

Sequence Input: GAATGA
Quantity Name: log10 binding signal
Reported Value: 0.20

Sequence Input: GGTCGA
Quantity Name: log10 binding signal
Reported Value: -0.48

Sequence Input: ATGGCA
Quantity Name: log10 binding signal
Reported Value: -0.22

Sequence Input: CACACA
Quantity Name: log10 binding signal
Reported Value: -0.11

Sequence Input: AATGGG
Quantity Name: log10 binding signal
Reported Value: -0.07

Sequence Input: CGCCCA
Quantity Name: log10 binding signal
Reported Value: -0.97

Sequence Input: AGGTGC
Quantity Name: log10 binding signal
Reported Value: -0.41

Sequence Input: CCGTGC
Quantity Name: log10 binding signal
Reported Value: -0.84

Sequence Input: CCCATC
Quantity Name: log10 binding signal
Reported Value: -0.27

Sequence Input: CCCTGC
Quantity Name: log10 binding signal
Reported Value: -0.66

Sequence Input: CTCAAC
Quantity Name: log10 binding signal
Reported Value: -0.04

Sequence Input: CATGCA
Quantity Name: log10 binding signal
Reported Value: -0.12

Sequence Input: ACTCAT
Quantity Name: log10 binding signal
Reported Value: 0.19

Sequence Input: CGCAAC
Quantity Name: log10 binding signal
Reported Value: -0.60

Sequence Input: ACCGTC
Quantity Name: log10 binding signal
Reported Value: -0.38

Recorded values, source paper PMC9838217.
